Let's go through some pIC50 measurements on Cytochrome P450 2D6 (Homo sapiens, UniProt P10635) together.
Sequence (P10635 whole entry): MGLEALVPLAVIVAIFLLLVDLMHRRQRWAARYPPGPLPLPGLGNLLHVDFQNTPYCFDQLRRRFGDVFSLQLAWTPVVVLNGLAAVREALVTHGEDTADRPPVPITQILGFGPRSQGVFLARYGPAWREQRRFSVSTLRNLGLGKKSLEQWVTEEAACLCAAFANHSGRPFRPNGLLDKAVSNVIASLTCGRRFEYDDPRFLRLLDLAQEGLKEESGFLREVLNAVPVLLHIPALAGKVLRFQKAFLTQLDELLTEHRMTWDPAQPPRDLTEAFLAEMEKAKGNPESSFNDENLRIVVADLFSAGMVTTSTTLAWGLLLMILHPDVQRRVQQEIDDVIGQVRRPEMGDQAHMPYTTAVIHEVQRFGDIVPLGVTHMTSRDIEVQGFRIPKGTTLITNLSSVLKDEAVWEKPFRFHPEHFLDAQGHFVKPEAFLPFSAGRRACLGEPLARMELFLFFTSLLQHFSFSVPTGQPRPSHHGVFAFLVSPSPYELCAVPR
Scale explanation: pIC50 corresponds to minus log10 of a concentration expressed in moles per litre.

Could you tell me which pIC50 is on file for "Cc1c(-c2cc(F)c(N)cc2F)ccc2c3oc(CN)nc3c(=O)n(C3CC3)c12" ?
4.95

Consider now this further compound.
Could you tell me which pIC50 is on file for "Cc1c(-c2ccc3[nH]ncc3c2)ccc2c3oc(CN)nc3c(=O)n(C3CC3)c12" ?
4.90

---

Let's go through some pIC50 measurements on Cytochrome P450 3A4 (Homo sapiens, UniProt P08684) together.
Sequence (P08684 whole entry): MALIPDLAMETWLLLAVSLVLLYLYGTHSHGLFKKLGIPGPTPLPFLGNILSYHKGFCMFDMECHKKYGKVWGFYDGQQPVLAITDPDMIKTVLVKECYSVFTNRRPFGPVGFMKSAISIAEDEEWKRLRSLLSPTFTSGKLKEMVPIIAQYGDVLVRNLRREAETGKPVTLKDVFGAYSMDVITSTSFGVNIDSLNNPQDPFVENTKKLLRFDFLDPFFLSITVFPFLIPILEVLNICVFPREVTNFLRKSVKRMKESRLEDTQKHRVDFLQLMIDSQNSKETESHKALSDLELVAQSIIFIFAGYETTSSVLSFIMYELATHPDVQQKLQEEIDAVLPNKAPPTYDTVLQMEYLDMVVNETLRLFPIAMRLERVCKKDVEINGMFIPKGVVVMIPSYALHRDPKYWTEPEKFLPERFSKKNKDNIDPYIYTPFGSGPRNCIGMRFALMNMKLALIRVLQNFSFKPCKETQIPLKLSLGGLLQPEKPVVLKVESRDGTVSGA
Scale explanation: pIC50 corresponds to minus log10 of a concentration expressed in moles per litre.

Could you tell me which pIC50 is on file for "Cc1c(-c2ccc3[nH]ncc3c2)ccc2c3oc(CN)nc3c(=O)n(C3CC3)c12" ?
5.89

Consider now this further compound.
Could you tell me which pIC50 is on file for "Cc1c(-c2cc(F)c(N)cc2F)ccc2c3oc(CN)nc3c(=O)n(C3CC3)c12" ?
4.89

---

Listing of recorded MIC by entry.
- Test system: Staphylococcus aureus
- experiment notes: Antibacterial activity against Staphylococcus aureus ATCC 29213 assessed as reduction in bacterial growth by CLSI method based broth microdilution assay
- Type: functional
Reply with just the number (in µg/mL).

Could you tell me which MIC is on file for "Cc1c(-c2ccc3[nH]c(N)nc3c2)ccc2c3ocnc3c(=O)n(C3CC3)c12" ?
0.25

Could you tell me which MIC is on file for "Nc1cc(F)c(-c2nc3c(cc2F)c2ocnc2c(=O)n3C2CC2)cc1F" ?
128

Could you tell me which MIC is on file for "Cc1c(-c2ccc(N)c(F)c2)ccc2c3ocnc3c(=O)n(C3CC3)c12" ?
0.12

Could you tell me which MIC is on file for "Cc1c(-c2cnc(N)nc2)ccc2c3ocnc3c(=O)n(C3CC3)c12" ?
1

Could you tell me which MIC is on file for "Cc1c(-c2cc(F)c(N)cc2F)ccc2c3ocnc3c(=O)n(C3CC3)c12" ?
0.03

Could you tell me which MIC is on file for "Cc1c(-c2ccc(N)c(C#N)c2)ccc2c3ocnc3c(=O)n(C3CC3)c12" ?
0.06

Consider now this further compound.
Could you tell me which MIC is on file for "Cc1c(-c2cc(F)c(N)cc2F)ccc2c3oc(CN)nc3c(=O)n(C3CC3)c12" ?
0.06

---

- System: Staphylococcus aureus
- experiment notes: Antibacterial activity against Staphylococcus aureus ATCC 29213 assessed as reduction in bacterial growth by CLSI method based broth microdilution assay
- Assay type: functional
API: label(entry) gives MET if the entry's MIC is strictly smaller than 0.5 µg/mL; on equality or larger values it gives NOT MET.

Bench note: check whether "Cc1c(-c2ccccc2)ccc2c3ocnc3c(=O)n(C3CC3)c12" shows MIC below 0.5 µg/mL
NOT MET

Bench note: check whether "Cc1c(-c2ccc(N)cc2F)ccc2c3ocnc3c(=O)n(C3CC3)c12" shows MIC below 0.5 µg/mL
MET

Bench note: check whether "Nc1cc(F)c(-c2cc3c(cc2F)c2ocnc2c(=O)n3C2CC2)cc1F" shows MIC below 0.5 µg/mL
MET

Bench note: check whether "Cc1nc2c(=O)n(C3CC3)c3c(C)c(-c4cc(F)c(N)cc4F)ccc3c2o1" shows MIC below 0.5 µg/mL
MET

Bench note: check whether "Cc1c(-c2ccc3[nH]cnc3c2)ccc2c3ocnc3c(=O)n(C3CC3)c12" shows MIC below 0.5 µg/mL
MET

Bench note: check whether "Cc1c(-c2ccc3[nH]ncc3c2)ccc2c3oc(CN)nc3c(=O)n(C3CC3)c12" shows MIC below 0.5 µg/mL
MET

Bench note: check whether "Cc1c(-c2cnc(N)cn2)ccc2c3ocnc3c(=O)n(C3CC3)c12" shows MIC below 0.5 µg/mL
NOT MET

Bench note: check whether "Cc1c(-c2cc(F)c(C(=O)O)cc2F)ccc2c3ocnc3c(=O)n(C3CC3)c12" shows MIC below 0.5 µg/mL
NOT MET

Bench note: check whether "Nc1cc(F)c(-c2ccc3c4ocnc4c(=O)n(C4CC4)c3c2)cc1F" shows MIC below 0.5 µg/mL
NOT MET
